Assay: CellTiter-Glo cell viability
Type: cell-based
Settings: human, DU145 cells, Concentration 39.0625, 4 day, read-out: mean_norm (normalized viability)
measurement.label: viability at 4 day (%)
Numbers only, in %.

Query: What value of viability at 4 day has been recorded for this entry: CC[C@@H]1C(=O)N(C)c2cnc(Nc3ccc(C(=O)NCCOCCOCCOCCOCCC(=O)N4CCC(Nc5cccc6c5cc(C#CCNc5ccc(S(C)(=O)=O)cc5OC)n6CC(F)(F)F)CC4)cc3OC)nc2N1C1CCCC1
Result: 104

====

Assay: CellTiter-Glo cell viability
Assay type: cell-based
Settings: human, p53_construct Mut; Compound_conc 25; CTG 4 days; read-out: mean (normalized viability)
measurement.label: viability at 4 days (%)
Give bare numbers, in %.

Query: What value of viability at 4 days has been recorded for this entry: CC[C@@H]1C(=O)N(C)c2cnc(Nc3ccc(C(=O)NC4CCN(C)CC4)cc3OC)nc2N1C1CCCC1 [BI2536]
Result: 62

====

Assay: viability with doxycycline-inducible construct
Format: cell-based
Conditions: human, dox 1000; Concentration 5; read-out: mean_norm (normalized viability)
measurement.label: viability (%)
One number for each entry, in %.

Query: What value of viability has been recorded for this entry: CC[C@@H]1C(=O)N(C)c2cnc(Nc3ccc(C(=O)NC4CCN(C)CC4)cc3OC)nc2N1C1CCCC1
Result: 14.5

====

Assay: CellTiter-Glo cell viability
Format: cell-based
Settings: human, BxPC-3 cells, BXPC3; Concentration 20000; 4 day; read-out: mean_norm (normalized viability)
measurement.label: viability at 4 day
Could you write the number and then its unit?

Query: What value of viability at 4 day has been recorded for this entry: CC[C@@H]1C(=O)N(C)c2cnc(Nc3ccc(C(=O)NCCOCCOCCOCCOCCC(=O)N4CCC(Nc5cccc6c5cc(C#CCNc5ccc(S(C)(=O)=O)cc5OC)n6CC(F)(F)F)CC4)cc3OC)nc2N1C1CCCC1
Result: 25.6%

====

Assay: CellTiter-Glo cell viability
Assay type: cell-based
Settings: human, NUGC-3 cells, NUGC3; Concentration 2500; 4 day; read-out: mean_norm (normalized viability)
measurement.label: viability at 4 day (%)
Give bare numbers, in %.

Query: What value of viability at 4 day has been recorded for this entry: CC[C@@H]1C(=O)N(C)c2cnc(Nc3ccc(C(=O)NCCOCCOCCOCCOCCC(=O)N4CCC(Nc5cccc6c5cc(C#CCNc5ccc(S(C)(=O)=O)cc5OC)n6CC(F)(F)F)CC4)cc3OC)nc2N1C1CCCC1
Result: 53.4

====

Experiment: CellTiter-Glo cell viability
Format: cell-based
Details: human, DU145 cells, Concentration 2500, 4 day, read-out: mean_norm (normalized viability)
measurement.label: viability at 4 day (%)
Numbers only, in %.

Query: What value of viability at 4 day has been recorded for this entry: CC[C@@H]1C(=O)N(C)c2cnc(Nc3ccc(C(=O)NCCOCCOCCOCCOCCC(=O)N4CCC(Nc5cccc6c5cc(C#CCNc5ccc(S(C)(=O)=O)cc5OC)n6CC(F)(F)F)CC4)cc3OC)nc2N1C1CCCC1 [p53-01, PMV6-PEG4-BI2536]
Result: 98.2

====

Experiment: CellTiter-Glo cell viability
Format: cell-based
Conditions: human, p53_construct Mut; Compound_conc 0.195312; CTG 4 days; read-out: mean (normalized viability)
measurement.label: viability at 4 days (%)
One number for each entry, in %.

Query: What value of viability at 4 days has been recorded for this entry: CC[C@@H]1C(=O)N(C)c2cnc(Nc3ccc(C(=O)NC4CCN(C)CC4)cc3OC)nc2N1C1CCCC1
Result: 107
